FYI, the data here is from paper PMC8038991.

The reader will find reported pKd values listed item by item below.
molecular target: GST-ZZ_(122-175), wild type, bacterially expressed (human) (UniProt Q13501); assay: ITC; protein 0.05 mM, 4-mer peptide 1 mM as injectant, B buffer (50 mM Tris-HCl pH 7.5, 200 mM NaCl), 25 °C, Microcal Auto-ITC200; single site-binding model
On this scale, pKd is minus log10 of a concentration expressed in M (mol/L).

{"binder": "RIFS [RIFS tetrapeptide (Nt-Arg)]", "assay-endpoint": "pKd", "readout-value": 5.36}

Q. I would be grateful if you could share the reported pKd for YIFS [YIFS tetrapeptide (Nt-Tyr)] .
A. 4.79
